Molecular target: T1, rat APJ receptor (rat, UniProt Q9JHG3 1-377)
T1 sequence (looked up): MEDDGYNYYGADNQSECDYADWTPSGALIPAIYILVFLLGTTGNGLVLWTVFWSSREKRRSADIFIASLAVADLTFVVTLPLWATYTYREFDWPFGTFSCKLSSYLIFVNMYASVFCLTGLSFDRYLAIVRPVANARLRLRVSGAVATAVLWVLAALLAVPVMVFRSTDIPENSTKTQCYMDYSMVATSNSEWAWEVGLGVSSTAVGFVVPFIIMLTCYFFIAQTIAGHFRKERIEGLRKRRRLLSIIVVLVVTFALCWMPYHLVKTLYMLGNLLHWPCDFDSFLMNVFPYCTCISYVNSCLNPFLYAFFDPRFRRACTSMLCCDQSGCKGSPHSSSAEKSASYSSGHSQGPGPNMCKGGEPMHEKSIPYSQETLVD
Experiment: cell-based or functional assay
Starred links: 1 amine or outer side, 2 acyl side, 3 side chain; linkers in the order of their positions; H or OH if unused. Non-standard residues stand in square brackets, D forms with d. *: point of attachment. AC4Abu = α-carboxy-4-aminobutyric acid, O=C(C(CCN[*:1])C(=O)[*:3])[*:2]; Oic = O=C(O)[C@@H]1C[C@@H]2CCCC[C@@H]2N1; Phe(4-Cl) = N[C@@H](Cc1ccc(Cl)cc1)C(=O)O; dPhe(4-I) = N[C@H](Cc1ccc(I)cc1)C(=O)O; γGlu = O=C(O)[C@H](CCC(=O)[*:2])N[*:1]; NMeR = CN[C@@H](CCCNC(=N)N)C(=O)O; Tridecanoyl = CCCCCCCCCCCCC(=O)*; hArg = N=C(N)NCCCC[C@H](N)C(=O)O; Cha = N[C@@H](CC1CCCCC1)C(=O)O; Nle = CCCC[C@H](N)C(=O)O; AEEA = NCCOCCOCC(=O)O
REPORTED_METRIC: EC50 Rat APJ Receptor (GTPγS assay) (nM)
State the answer as a number, implicitly in nM.

Tridecanoyl-[AC4Abu][AEEA][AEEA][dQ][hArg]P[dR][Cha]SHKG[Oic][Nle][dPhe(4-I)]-OH (SMILES CCCCCCCCCCCCC(=O)NCCC(C(=O)O)C(=O)NCCOCCOCC(=O)NCCOCCOCC(=O)N[C@H](CCC(N)=O)C(=O)N[C@@H](CCCCNC(=N)N)C(=O)N1CCC[C@H]1C(=O)N[C@H](CCCNC(=N)N)C(=O)N[C@@H](CC1CCCCC1)C(=O)N[C@@H](CO)C(=O)N[C@@H](Cc1c[nH]cn1)C(=O)N[C@@H](CCCCN)C(=O)NCC(=O)N1[C@H](C(=O)N[C@@H](CCCC)C(=O)N[C@H](Cc2ccc(I)cc2)C(=O)O)C[C@@H]2CCCC[C@@H]21) [Apelin polypeptide SEQ ID NO: 453]: 20.8

Next item in the queue.
Tell me its EC50 Rat APJ Receptor (GTPγS assay) given Tridecanoyl-[γGlu][AEEA][AEEA]QRP[NMeR][Cha]SH[AMeK]G[Oic][Nle]P[Phe(4-Cl)]-OH [Apelin polypeptide SEQ ID NO: 444] as the entry.
10.1

// data source = patent US10941182
